Tested on: hiPSC-CMs (iCell-Cardiomyocytes^2)
Conditions: 0.3 µM, 72h
Protocol: Cells were seeded according to the instructions of the cell provider, in fibronectin-coated 48-well MEA plates (Axion Cytoview Plates, M768-tMEA-48B) at a density suited to form a monolayer (i.e., 50 K/well) and maintained in culture in a stage incubator (37°C, 5% CO2). […] The potential presence of various arrhythmic events was evaluated and noted during the data analysis. […]
measured_quantity: BR (beating rate), % change from baseline

Here is how some compounds turned out for BR (beating rate), % change from baseline.
# compound, recorded_measurement
measured = [
    ("COc1cccc2c1C(=O)c1c(O)c3c(c(O)c1C2=O)C[C@@](O)(C(=O)CO)C[C@@H]3O[C@H]1C[C@H](N)[C@H](O)[C@H](C)O1", "39±0 %"),
    ("COc1nc(N)nc2c1ncn2[C@@H]1O[C@H](COP(=O)(N[C@@H](C)C(=O)OCC(C)(C)C)Oc2cccc3ccccc23)[C@@H](O)[C@@]1(C)O (stereo partly drawn)", "22±3 %"),
]

# next compound below
Data request: Item: N=C(N)c1ccc(OCCCCCOc2ccc(C(=N)N)cc2)cc1 Test system: hiPSC-CMs (iCell-Cardiomyocytes^2) Read-out: BR (beating rate), % change from baseline Value: ?
Data returned: -11±4%

====

Imp (impedance), % change from baseline values by entry
Test system: hiPSC-CMs (iCell-Cardiomyocytes^2)
Experiment: MEA impedance (cytotoxicity readout) in hiPSC-CMs
Conditions: 0.3 µM, 24h
Give your result in % as a bare value.

# compound, Imp (impedance), % change from baseline [%]
records = [
    ("Cc1cn(-c2cc(NC(=O)c3ccc(C)c(Nc4nccc(-c5cccnc5)n4)c3)cc(C(F)(F)F)c2)cn1", -11),
    ("COc1cccc2c1C(=O)c1c(O)c3c(c(O)c1C2=O)C[C@@](O)(C(=O)CO)C[C@@H]3O[C@H]1C[C@H](N)[C@H](O)[C@H](C)O1", -23),
    ("COc1nc(N)nc2c1ncn2[C@@H]1O[C@H](COP(=O)(N[C@@H](C)C(=O)OCC(C)(C)C)Oc2cccc3ccccc23)[C@@H](O)[C@@]1(C)O (stereo partly drawn)", -3),
    ("CC(C)(Sc1cc(C(C)(C)C)c(O)c(C(C)(C)C)c1)Sc1cc(C(C)(C)C)c(O)c(C(C)(C)C)c1", -4),
    ("CCN(CC)CCNC(=O)c1c(C)[nH]c(/C=C2\\C(=O)Nc3ccc(F)cc32)c1C", -7),
]

Data request: What value of Imp (impedance), % change from baseline has been recorded for this entry: COc1cc2c(Nc3ccc(Br)cc3F)ncnc2cc1OCC1CCN(C)CC1
Data returned: -9

Data request: What do you get for C#Cc1cccc(Nc2ncnc3cc(OCCOC)c(OCCOC)cc23)c1 ?
Data returned: -5

Data request: Now the same for O=C(O)COCCN1CCN(C(c2ccccc2)c2ccc(Cl)cc2)CC1 (stereo not drawn)
Data returned: -8

Data request: Item: N=C(N)c1ccc(OCCCCCOc2ccc(C(=N)N)cc2)cc1
Data returned: -3

====

Test system: hiPSC-CMs (iCell-Cardiomyocytes^2)
Test: MEA impedance (cytotoxicity readout) in hiPSC-CMs
Settings: 0.3 µM, 48h
measured_quantity: Imp (impedance), % change from baseline

# compound, recorded_measurement
measured = [
    ("C#Cc1cccc(Nc2ncnc3cc(OCCOC)c(OCCOC)cc23)c1", "-5±4%"),
    ("COc1nc(N)nc2c1ncn2[C@@H]1O[C@H](COP(=O)(N[C@@H](C)C(=O)OCC(C)(C)C)Oc2cccc3ccccc23)[C@@H](O)[C@@]1(C)O (stereo partly drawn)", "-6±3%"),
    ("Cc1cn(-c2cc(NC(=O)c3ccc(C)c(Nc4nccc(-c5cccnc5)n4)c3)cc(C(F)(F)F)c2)cn1", "3±7%"),
    ("CC(C)(Sc1cc(C(C)(C)C)c(O)c(C(C)(C)C)c1)Sc1cc(C(C)(C)C)c(O)c(C(C)(C)C)c1", "-3±7 %"),
    ("COc1cc2c(Nc3ccc(Br)cc3F)ncnc2cc1OCC1CCN(C)CC1", "-3±3%"),
    ("COc1cccc2c1C(=O)c1c(O)c3c(c(O)c1C2=O)C[C@@](O)(C(=O)CO)C[C@@H]3O[C@H]1C[C@H](N)[C@H](O)[C@H](C)O1", "-47±6 %"),
    ("O=C(O)COCCN1CCN(C(c2ccccc2)c2ccc(Cl)cc2)CC1 (stereo not drawn)", "-5±4%"),
    ("N=C(N)c1ccc(OCCCCCOc2ccc(C(=N)N)cc2)cc1", "-4±4%"),
]

Data request: Param item = CCN(CC)CCNC(=O)c1c(C)[nH]c(/C=C2\C(=O)Nc3ccc(F)cc32)c1C ; retrieve measured Imp (impedance), % change from baseline.
Data returned: -3±5%
